Below are IC50 measurements against Cyclin-dependent kinase 2 (Homo sapiens, UniProt P24941) drawn from the literature.

{"Smiles string": "O=C(Nc1ccc(-n2cncn2)cc1)c1ccc(NC(=O)C2CCCCC2)s1", "IC50": "≤ 1000 nM"}
{"Smiles string": "CN(C)CCNC(=O)c1ccc(-c2nc3ccc4[nH]ncc4c3c3c2CCCC3)cc1", "IC50": "7 nM"}
{"Smiles string": "CS(=O)(=O)N1CCC[C@@H](Nc2ncc3cc(C#N)c(=O)n(C4CCCC4)c3n2)C1", "IC50": "1240 nM"}
{"Smiles string": "CC(C)COc1cccc(-c2cnc(Nc3ccc(N4CCN(C)CC4)cc3)o2)c1", "IC50": "< 1000 nM"}
{"Smiles string": "CN(C)Cc1ccc(N/C=C2\\C(=O)Nc3ccc4ncccc4c32)cc1", "IC50": "< 1000 nM"}
{"Smiles string": "C[C@H](NC(=O)c1ccc(C(=O)Nc2ccc(-n3cncn3)c(F)c2)o1)C1CCCCC1", "IC50": "≤ 1000 nM"}

// recorded IC50 for CS(=O)(=O)N1CCC(Nc2ncc3cc(C#N)c(=O)n(C45CC(C4)C5)c3n2)CC1 : 7 nM

// recorded IC50 for Cc1cc(N2CCNCC2)ccc1NC(=O)c1ccc(C(=O)Nc2ccc(-n3cncn3)cc2)s1 : ≤ 1000 nM
